# tgt: UniProt P41144
# methodDescription: Displacement of [3H]U69593 from kappa opioid receptor in guinea pig cortices membrane by liquid scintillation counting analysis
# Assay type: cell membranes
For each entry below, report its Ki value.

Given the compound `CC(C)C[C@H]1CNCCN1C[C@H](Cc1ccccc1)N(C)CCN1CCN(C[C@H](Cc2ccc(O)cc2)N(C)C)CC1` , what is its reported Ki? 3.43 µM

Entry `CC(C)C[C@H]1CNC(=S)N1C[C@H](Cc1ccccc1)N(C)CCN1CCN(C[C@H](Cc2ccc(O)cc2)N(C)C)C1=S` please 2.3 µM

Next: `CC(C)C[C@H]1CNC(=S)N1C[C@H](Cc1ccccc1)N(C)CCN(C)CCN1C[C@H](Cc2ccc(O)cc2)N(C)C1=S` 3.42 µM

And for `CC(C)C[C@H]1CNC(=S)N1C[C@H](Cc1ccccc1)N(C)C[C@@H]1CCCN1C[C@H](Cc1ccc(O)cc1)N(C)C` ? 3.32 µM

Then `CC(C)C[C@H]1CNCCN1C[C@H](Cc1ccccc1)N(C)CCN(C)CCN1CCN(C)[C@@H](Cc2ccc(O)cc2)C1` ? 3.12 µM

Now consider `CC(C)C[C@H]1CNC(=N)N1C[C@H](Cc1ccccc1)N(C)CCN1CCN(C[C@H](Cc2ccc(O)cc2)N(C)C)C1=N` . 11.3 µM

Then `CC(C)C[C@@H](CN)NC[C@H](Cc1ccccc1)N(C)C[C@@H]1CCCN1C[C@H](Cc1ccc(O)cc1)N(C)C` ? 1.28 µM

====

Answer each item with its documented pKi.
# tgt: Kappa-type opioid receptor (Cavia porcellus)
# Sequence (P41144 whole entry): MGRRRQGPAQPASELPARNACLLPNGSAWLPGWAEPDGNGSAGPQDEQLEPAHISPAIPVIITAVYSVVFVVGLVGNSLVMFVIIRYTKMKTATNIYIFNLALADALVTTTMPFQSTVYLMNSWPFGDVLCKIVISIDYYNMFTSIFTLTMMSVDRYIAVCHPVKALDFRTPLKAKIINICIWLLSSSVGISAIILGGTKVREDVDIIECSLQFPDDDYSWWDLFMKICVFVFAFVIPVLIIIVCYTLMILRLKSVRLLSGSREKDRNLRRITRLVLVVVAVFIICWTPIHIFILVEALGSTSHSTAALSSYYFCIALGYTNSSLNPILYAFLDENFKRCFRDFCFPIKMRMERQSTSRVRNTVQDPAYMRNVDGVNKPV
# methodDescription: Displacement of [3H]U69593 from kappa opioid receptor in guinea pig cortices membrane by liquid scintillation counting analysis
# Type: cell membranes
Square brackets hold non-standard residues; d marks the D form. Peptide text beside a SMILES is read from it. ξ: configuration not given here. NMeY = CN[C@@H](Cc1ccc(O)cc1)C(=O)O; NMeF = CN[C@@H](Cc1ccccc1)C(=O)O; ξP = O=C(O)C1CCCN1; Ava = NCCCCC(=O)O
Keep it numeric: pKi is minus log10 of the concentration in mol/L.

# lookup: pKi of `CC(C)C[C@H]1CNC(=O)C(=O)N1C[C@H](Cc1ccccc1)N(C)C[C@@H]1CCCN1C[C@H](Cc1ccc(O)cc1)N(C)C` 4.98

Subsequent entry: CC(C)CC(CN)NCC(Cc1ccccc1)N(C)CCCCCNCC(N)Cc1ccc(O)cc1 (configuration not stated) 5.79

Same lookup for CC(C)C[C@H](NC(=O)[C@H](Cc1ccccc1)N(C)C(=O)CCCCNC(=O)[C@@H](N)Cc1ccc(O)cc1)C(N)=O (H-Y[Ava][NMeF]L-NH2) , please. 4.65

Now this one: `CN[C@H](CNCC(=O)N(C)CCN(C)[C@H](CN[C@H](CN)CC(C)C)Cc1ccccc1)Cc1ccc(O)cc1` 5.95

For `CC(C)C[C@H]1CNC(=S)N1C[C@H](Cc1ccccc1)N(C)CCCCCN1C[C@H](Cc2ccc(O)cc2)NC1=S` then? 5.02

Same question for `CC(C)C[C@H]1CNC(=O)C(=O)N1C[C@H](Cc1ccccc1)N(C)CCN(C)CCN1C[C@H](Cc2ccc(O)cc2)N(C)C(=O)C1=O` please. 4.03

# iterate: CN[C@@H](Cc1ccc(O)cc1)C(=O)N1CCCC1C(=O)N(C)[C@@H](Cc1ccccc1)C(=O)N[C@@H](CC(C)C)C(N)=O (stereo partly drawn) (H-[NMeY][ξP][NMeF]L-NH2) 5.69
